System: fall armyworm larvae (Spodoptera frugiperda)
Assay: Spodoptera frugiperda test (SPODFR spray application)
Type: in vivo
Conditions: application rate 500 g/ha; after 7 days
Overview of recorded activity (mortality) for various compounds
Observable: activity (mortality) (%)

[[record]]
compound = "CCC(=O)NCc1cc(F)c(N2CCC(c3cc(Cl)cc(Cl)c3)(C(F)(F)F)C2O)nc1Cl (stereo not shown) [A3-356]"
reported = 100

[[record]]
compound = "Cc1cc(N2CCC(c3cc(Cl)cc(Cl)c3)(C(F)(F)F)C2O)ccc1CNC(=O)CC(F)(F)F (mixture of isomers) [A1-79]"
reported = 83

[[record]]
compound = "O=C(NCc1cc(F)c(N2CCC(c3cc(Cl)cc(Cl)c3)(C(F)(F)F)C2O)nc1Cl)C1CC1 (stereo not shown) [A3-359]"
reported = 100

[[record]]
compound = "Cc1cc(N2CCC(c3cc(Cl)cc(Cl)c3)(C(F)(F)F)C2O)ccc1CNC(=O)C1CC1 (mixture of isomers) [A1-77]"
reported = 100

